Ref: patent US20100203055A1

Test system: FGFR3c
assay.summary: Inhibition of FGF18-stimulated DNA synthesis (cell growth) in FGFR3c/BaF3 cells by FGF18 partial peptides
Format: cell-based, mouse
assay.conditions: test sample 1 μg/ml, 30 ng/ml FGF18, FIG. 3A
readout.label: inhibition of the activity of FGF18 on FGFR3c/BaF3 cells

molecule: d16: partial peptide of mouse FGF18, 16 amino acids deleted from N-terminus; SEQ ID NO: 17 (protein, truncation mutant polypeptide of mouse FGF18(d16)) MARDDVSRKQLRLYQLYSRTSGKHIQVLGRRISARGEDGDKYAQLLVETDTFGSQVRIKGKETEFYLCMNRKGKLVGKPDGTSKECVFIEKVLENNYTALMSAKYSGWYVGFTKKGRPRKGPKTRENQQDVHFMKRYPKGQAELQKPFKYTTVTKRSRRIRPTHPG
test.result: strongly inhibit
--
molecule: d95: partial peptide of mouse FGF18, 95 amino acids deleted from N-terminus; SEQ ID NO: 24 (protein, truncation mutant polypeptide of mouse FGF18(d95)) MGTSKECVFIEKVLENNYTALMSAKYSGWYVGFTKKGRPRKGPKTRENQQDVHFMKRYPKGQAELQKPFKYTTVTKRSRRIRPTHPG
test.result: strongly inhibit
